Tested on: hapten affinity-purified D-mannitol-specific antibody
Assay: ELISA inhibition: specificity and cross-reactivity of the hapten affinity-purified antibody, D-mannitol-KLH coated wells
Format: binding, rabbit
Settings: (IC50 for D-mannitol ÷ IC50 for test compound) × 100
Recorded Percent cross-reactivity, one value per entry.
Kindly provide the numeric value in % only, without the unit symbol.

Completed entries (count: 3):
INSERT INTO results (molecule, unitannotation, measured) VALUES
  ('O=C[C@@H](O)[C@@H](O)[C@H](O)[C@H](O)CO [D-Mannose]', '%', 4.9),
  ('OCC(O)C(O)CO (stereo not drawn) [meso-Erythritol]', '%', 4.9),
  ('OC[C@@H](O)[C@@H](O)[C@H](O)[C@H](O)CO [D-Mannitol]', '%', 100.0);

Bench note: what Percent cross-reactivity did OC[C@@H](O)[C@@H](O)[C@H](O)[C@@H](O)CO [D-Glucitol] show?
8.8

Another molecule to check: NCCCC[C@H](N)C(=O)O [L-lysine]
2
